Recorded values, source the Kinase Knowledgebase extract (Sharma et al. 2016).

Molecular target: MAPK14 (human)
Test: Inhibition of LPS Stimulated TNF Production by U937 Cells
Details: concentration not given here
The compounds listed here are annotated with their inhibition.
# output: bare number, implied unit %

O=S(=O)(NCCCc1[nH]nc(-c2ccc(F)cc2)c1-c1ccncc1)c1ccc(F)cc1F :: 60
CC(C)OC(=O)NCc1[nH]nc(-c2ccc(F)cc2)c1-c1ccncc1 :: 54
CCS(=O)(=O)N[C@H](C)c1[nH]nc(-c2ccc(F)cc2)c1-c1ccncc1 :: 48
O=S(=O)(N[C@H](Cc1ccccc1)c1[nH]nc(-c2ccc(F)cc2)c1-c1ccncc1)c1cccs1 :: 29
C[C@@H](NC(=O)c1cc(C(F)(F)F)ccc1F)c1[nH]nc(-c2ccc(F)cc2)c1-c1ccncc1 :: 43

Attention now shifts to the item below.
Output inhibition of "C[C@H](NS(=O)(=O)c1ccc(C(F)(F)F)cc1)c1[nH]nc(-c2ccc(F)cc2)c1-c1ccncc1"
86
